Numbers sourced from paper PMC10397247.

Documented interaction score across a set of binders
- studyTarget: T1, 4H780-AA
- T1 chain: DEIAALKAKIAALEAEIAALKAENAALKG
- assayComment: two-hybrid library CCmax;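 further: natural log of median RNA to DNA barcode read ratio; higher means stronger binding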
- settings: mean of both orientations
Answer field: number only, no words.

Examples with answers:
# binder, interaction score
records = [
    ("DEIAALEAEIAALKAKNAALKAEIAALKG [4H122-AA]", -1.74),
    ("DKNAALKAKIAALKAENAALEAEIAALEG [4H3921-AA]", -1.71),
    ("DEIAALKAEIAALKAENAALKAKIAALEG [4H605-AA]", -1.53),
    ("DEIAALKAENAALEAKIAALEAKIAALKG [4H678-AA]", -1.59),
    ("DEIAALKAEIAALEAKNAALEAKIAALKG [4H566-AA]", -2),
    ("DEIAALEAKIAALEAKNAALKAKIAALEG [4H317-AA]", -1.52),
    ("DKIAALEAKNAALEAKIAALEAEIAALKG [4H2466-AA]", -1.2),
    ("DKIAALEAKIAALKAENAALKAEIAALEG [4H2393-AA]", -1.42),
    ("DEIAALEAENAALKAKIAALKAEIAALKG [4H234-AA]", -1.42),
    ("DKNAALEAKIAALEAEIAALKAKNAALEG [4H3343-AA]", -1.16),
]

Provide measured interaction score value, entry: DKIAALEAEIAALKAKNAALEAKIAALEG [4H2165-AA]
-1.4

Provide measured interaction score value, entry: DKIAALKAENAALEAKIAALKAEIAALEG [4H2729-AA]
-1.31

Provide measured interaction score value, entry: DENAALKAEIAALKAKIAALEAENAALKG [4H1636-AA]
-1.3
